- targetOrTestSystem: full-length beta-Catenin (Uniprot ID P35222) (Homo sapiens (Human)) (UniProt P35222)
- Sequence (P35222 2-781 limits assumed): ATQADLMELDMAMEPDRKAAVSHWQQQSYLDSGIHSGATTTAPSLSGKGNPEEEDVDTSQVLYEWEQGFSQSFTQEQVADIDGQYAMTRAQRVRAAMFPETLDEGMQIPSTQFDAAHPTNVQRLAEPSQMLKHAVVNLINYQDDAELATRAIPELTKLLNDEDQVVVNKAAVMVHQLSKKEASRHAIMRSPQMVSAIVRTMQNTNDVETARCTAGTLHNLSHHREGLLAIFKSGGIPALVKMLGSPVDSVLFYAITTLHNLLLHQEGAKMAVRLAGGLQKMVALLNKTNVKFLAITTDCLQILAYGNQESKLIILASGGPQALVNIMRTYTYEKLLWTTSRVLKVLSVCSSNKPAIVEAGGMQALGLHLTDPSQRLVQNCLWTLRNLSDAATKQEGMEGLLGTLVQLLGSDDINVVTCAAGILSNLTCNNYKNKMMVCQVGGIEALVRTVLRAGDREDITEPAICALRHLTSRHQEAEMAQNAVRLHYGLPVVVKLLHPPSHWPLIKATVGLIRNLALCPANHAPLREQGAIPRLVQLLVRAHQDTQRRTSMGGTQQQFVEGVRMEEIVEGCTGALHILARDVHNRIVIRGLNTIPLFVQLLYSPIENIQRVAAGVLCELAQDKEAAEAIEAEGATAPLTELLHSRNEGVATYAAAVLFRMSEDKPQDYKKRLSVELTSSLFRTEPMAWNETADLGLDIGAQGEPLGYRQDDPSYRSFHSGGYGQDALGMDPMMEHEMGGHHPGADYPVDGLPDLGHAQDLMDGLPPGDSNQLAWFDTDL
- procedureDetails: fluorescence polarization competition, competitor 5FAM-TCF4 10-53
Starred links: 1 amine or outer side, 2 acyl side, 3 side chain; linkers in the order of their positions; H or OH if unused. Positions of bridges follow the written chain, without caps; N, C: chain ends. Non-standard residues stand in square brackets, D forms with d. Primed or numbered codes have the meaning given here. *: point of attachment. PyrS2″ = (S)-3-amino-1-((pent-4-en-1-yloxy)carbonyl)pyrrolidine-3-carboxylic acid (stapling residue), C=CCCCOC(=O)N1CC[C@@](N[*:1])(C(=O)[*:2])C1; B5(4) = 2,2-bis(4-pentenyl)glycine = 2-amino-2-(pent-4-en-1-yl)hept-6-enoic acid (stitching residue), C=CCCCC(CCCC=C)(N[*:1])C(=O)[*:2]; B5(5) = 2,2-bis(4-pentenyl)glycine, 2-amino-2-(pent-4-en-1-yl)hept-6-enoic acid (stitching residue), C=CCCCC(CCCC=C)(N[*:1])C(=O)[*:2]; B5(33) = 2-amino-2-(pent-4-en-1-yl)hept-6-enoic acid (bis-pentenylglycine, two olefin side chains), C=CCCCC(CCCC=C)(N[*:1])C(=O)[*:2]; PyrS2 = (S)-3-amino-1-((pent-4-en-1-yloxy)carbonyl)pyrrolidine-3-carboxylic acid, C=CCCCOC(=O)N1CC[C@@](N[*:1])(C(=O)[*:2])C1; S10 = (S)-2-amino-2-methyldodec-11-enoic acid, C=CCCCCCCCC[C@](C)(N[*:1])C(=O)[*:2]; mPEG2 = N-terminal 3-(2-methoxyethoxy)propanoic acid, COCCOCCC(=O)*; Phe(2-Cl) = N[C@@H](Cc1ccccc1Cl)C(=O)O; 1Nal = N[C@@H](Cc1cccc2ccccc12)C(=O)O; Bta = N[C@@H](Cc1csc2ccccc12)C(=O)O; αAllylPro = C=CC[C@@]1(C(=O)O)CCCN1; tBuAla = CC(C)(C)C[C@H](N)C(=O)O; S8 = C=CCCCCCC[C@](C)(N)C(=O)O; Propanoyl(3-OMe) = COCCC(=O)*; Leu(ol) = CC(C)C[C@H](N)CO; Octanoyl = CCCCCCCC(=O)*; Alaol = C[C@@H](CO)N*
metric: IC50

Answer with the recorded IC50 for the binder listed here: {Propanoyl(3-OMe)}-[αAllylPro]D[tBuAla][B5(33)]DDAAFT[S8][Phe(2-Cl)][Bta]Q-NH2 (staple 1-4, 4-11) [I-1261]
31 nM

Answer with the recorded IC50 for the binder listed here: mPEG2-[αAllylPro]D[tBuAla][B5(33)]DDAAFT[S8][Phe(2-Cl)][Bta]Q-NH2 (staple 1-4, 4-11) [I-1255]
32 nM

Answer with the recorded IC50 for the binder listed here: Ac-[αAllylPro]D[tBuAla][B5(5)]DTAA[1Nal]T[PyrS2″]F[Bta]S-NH2 (staple 1-4, 4-11) [I-1266]
755 nM

Answer with the recorded IC50 for the binder listed here: Ac-[αAllylPro]D[tBuAla][B5(33)]DDAAFT[S10][Phe(2-Cl)][Bta]T-NH2 (staple 1-4, 4-11) [I-1262]
1120 nM

Answer with the recorded IC50 for the binder listed here: Octanoyl-[αAllylPro]D[tBuAla][B5(4)]DDAAFT[S8][Phe(2-Cl)][Bta]Q-NH2 (staple 1-4, 4-11) [I-1254]
530 nM

Answer with the recorded IC50 for the binder listed here: Ac-[αAllylPro]D[tBuAla][B5(33)]DTLAFT[PyrS2]F[Bta]S-NH2 (staple 1-4, 4-11) [I-1264]
157 nM

Answer with the recorded IC50 for the binder listed here: Ac-[αAllylPro]D[tBuAla][B5(4)]DDAAFL[PyrS2″][Phe(2-Cl)][Bta]-Alaol (staple 1-4, 4-11) [I-1250]
31 nM

Answer with the recorded IC50 for the binder listed here: Ac-[αAllylPro]D[tBuAla][B5(33)]DTALFT[PyrS2]F[Bta]S-NH2 (staple 1-4, 4-11) [I-1265]
152 nM

Answer with the recorded IC50 for the binder listed here: Ac-[αAllylPro]D[tBuAla][B5(4)]DDAAFL[PyrS2″][Phe(2-Cl)][Bta][Leu(ol)] (staple 1-4, 4-11) [I-1251]
1940 nM

Answer with the recorded IC50 for the binder listed here: XDXXDDAAFTXFXQ (not fully specified; MeSO2-PL3-Asp-Npg-B5-Asp-Asp-Ala-Ala-Phe-Thr-S8-2C1F-BztA-Gln-NH2; stapled by olefin metathesis (PL3-B5 and B5-S8)) [I-1260]
23 nM
